measurement-protocol: Buffer and pH effects study: pirfenidone saturation solubility
Assay type: physicochemical
experimental-conditions: citrate buffer, pH 4, aqueous buffer, thermodynamic from solid, Citrate buffer 5 mM, pH 4, ambient temperature overnight
Procedure: The sample was agitated at ambient temperature overnight. The sample was visually inspected, appearance recorded, centrifuged to sediment any un-dissolved material, and the supernatant withdrawn via syringe through a 0.22 μm PVDF filter. […] The remaining filtered sample was split into three equal volumes in glass vials and placed at 25° C./60 RH, 40° C./75 RH and refrigeration. Samples were wrapped in aluminum foil to reduce light exposure. […]
measure-name: solubility
Quick note: unit goes after the number.

Please indicate solubility recorded for Cc1ccc(=O)n(-c2ccccc2)c1 [pirfenidone, 5-methyl-1-phenyl-2-(1H)-pyridone] 18.4 mg/mL

###

measurement-protocol: Co-solvent and surfactant effects on pirfenidone saturation solubility
Type: physicochemical
experimental-conditions: aqueous co-solvent/surfactant solvent system, pH 4.5, aqueous with cosolvent or surfactant or cyclodextrin, thermodynamic from solid, 8% PG, 0.1% CPB, 91.9% citrate buffer (10 mM), pH 4.5
measure-name: solubility (mg/mL)
Give bare numbers, in mg/mL.

Please indicate solubility recorded for Cc1ccc(=O)n(-c2ccccc2)c1 21

###

measurement-protocol: Pharmacokinetics and lung-tissue distribution after oral gavage or intratracheal aerosol
Assay type: in vivo, Sprague-Dawley rats
experimental-conditions: Sprague-Dawley, rat, lung, po, 70 mg/kg, read-out: Lung T1/2 α (only α observed)
measure-name: half-life (min)
One number for each entry, in min.

Please indicate half-life recorded for Cc1ccc(=O)n(-c2ccccc2)c1 45

###

measurement-protocol: Co-solvent and surfactant effects on pirfenidone saturation solubility
Type: physicochemical
experimental-conditions: aqueous co-solvent/surfactant solvent system, pH 5, aqueous with cosolvent or surfactant or cyclodextrin, thermodynamic from solid, 8% PG, 0.1% CPB, 91.9% water, pH 5.0
measure-name: solubility (mg/mL)
Numbers only, in mg/mL.

Please indicate solubility recorded for Cc1ccc(=O)n(-c2ccccc2)c1 22.3

###

measurement-protocol: Co-solvent and surfactant effects on pirfenidone saturation solubility;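 further: samples equilibrated by overnight agitation at ambient temperature, with solubility taken from the supernatant after undissolved solid was removed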
Format: physicochemical
experimental-conditions: water with co-solvent, pH 6.8, aqueous with cosolvent or surfactant or cyclodextrin, thermodynamic from solid, 8% PG, 92.0% water, pH 6.8
measure-name: solubility (mg/mL)
One number for each entry, in mg/mL.

Please indicate solubility recorded for Cc1ccc(=O)n(-c2ccccc2)c1 [pirfenidone, 5-methyl-1-phenyl-2-(1H)-pyridone] 24.6

###

measurement-protocol: Pharmacokinetics and tissue distribution (lung, plasma, heart, kidney) of co-solvent formulations, intratracheal bolus aerosol
Assay type: in vivo, Sprague-Dawley rats
experimental-conditions: Sprague-Dawley, rat, kidney, other: intratracheal bolus aerosol, 4 mg/kg, Pirfenidone, kidney tissue, Mean, Group 6; 0.333 hr; about 4 mg/kg IT aerosol
measure-name: concentration at 0.333 h (ng/g)
Give bare numbers, in ng/g.

Please indicate concentration at 0.333 h recorded for Cc1ccc(=O)n(-c2ccccc2)c1 4870

###

measurement-protocol: Pharmacokinetics and lung-tissue distribution after oral gavage or intratracheal aerosol
Type: in vivo, Sprague-Dawley rats
experimental-conditions: Sprague-Dawley, rat, plasma; oral 70 mg/kg
measure-name: Cmax (ng/mL)
Numbers only, in ng/mL.

Please indicate Cmax recorded for Cc1ccc(=O)n(-c2ccccc2)c1 8100

###

measurement-protocol: Pharmacokinetics and tissue distribution (lung, plasma, heart, kidney) of co-solvent formulations, intratracheal bolus aerosol
Format: in vivo, Sprague-Dawley rats
experimental-conditions: Sprague-Dawley, rat, kidney, other: intratracheal bolus aerosol, 4 mg/kg, Pirfenidone, kidney tissue, Mean, Group 1; 0.333 hr; about 4 mg/kg IT aerosol
measure-name: concentration at 0.333 h (ng/g)
One number for each entry, in ng/g.

Please indicate concentration at 0.333 h recorded for Cc1ccc(=O)n(-c2ccccc2)c1 4870
